- measurement-description: yeast display, Sf9 membrane polyspecificity reagent, FACS + sequencing; frameworks hold sequencing errors
measured-metric: polyreactivity (PSR sort gate)

Sample answers from the record:
QVQLVESGGGLVQAGGSLRLSCAASGRIFTAYAMGWYRQAPGKERELVAAISSGDSTYYADSVKGRFTISRDNAKNTVSLQMNSLKPEDTAVYYCATGVYPDFEYDSWGQGTQVTVSS : low polyreactivity
QVQLVESGGGLVQAGGSLRLSCAASGIIFSYYAMGWYRQEPGKERELVAAIDSGGSTYYADSVKGRFTISRDNAKNTVYLQMNSLKPEDTAVYYCNADTARGVPVFPHDYWGQGTQVTVSS : low polyreactivity
QVQLVESGGGLVQAGGSLRLSCAASAFTFPGNAMGWYRHATGKERQLVAAISGTGGSTYYADSVKGRFTISRDNAKNTVYLQMNSLKPEDTAVYYCAARLGGRRRFGYWGQGTQVTVSS : high polyreactivity
QVQLVESGGGLVQAGGRLRLSCAASGSIFDSYVMGWYRQAPGKERELVAAITYSGGSTYADSVKGRFTISRDNAKNTVYLEMNSLKPEDTAVYYCAAASYFYLYLLEDYWGQRTQVTVSS : low polyreactivity
QVQLVESGGGLVQAGGSLRLRCAASGSIFTDYAMGGYRQAPGKERELVAVIDIDGSTYYADSVKGRFTISRDNAKNTVYLQMNSLKPEDTAVYDCAAGYTYYSLYGYWGQGTQVTGSS : low polyreactivity

Input: Give the measured polyreactivity (PSR sort gate) for QVQLVESGGGLVQAGGSLRLSCAASGRIFRQYAMGWYRQAPGKEREFVAGISTTGGSTYYADSVKGRFTISRDNAKNTVYLQMNSLKPEDTAVYYCAVRINWSRWYHYYTYNYWGQGTQVTVSS
Output: high polyreactivity

Input: Give the measured polyreactivity (PSR sort gate) for QVQLVESGGGLVQAGGSLRLSCAASGRTFGANAMGWYRQAPGKERELVAGITSSGGSTSYADSVKGRFTISRDNAKNTVYLQMNSLKPEDTAVYYCAKDVYQHIFDVILGGYDSWGQGTQVTVSS
Output: low polyreactivity

Input: Give the measured polyreactivity (PSR sort gate) for QVQLVESVGGLAQSRGSLRLSCAASGRTFFPNAMGWYRQAPGKERELVAAITNGDSTHYADSVKRRFTISRDNAKNTVYLQMNSLKPEDTADYYCAAEDHYEGYGGYYWGQVTQVTVSS
Output: low polyreactivity

Input: Give the measured polyreactivity (PSR sort gate) for QVQLVESGAGLVQAGGSLRLSCAASGSTFYPYAMGWYRQAPGKERELVAAISWSGGSTYYADSVKGRFTISRDNAKNTVYLQMNSLKPEDTAVYYCAAEYYYIAYTMDYWGQGTQVTVSS
Output: high polyreactivity

Input: Give the measured polyreactivity (PSR sort gate) for QVQLVESGGGLVQAGGSLRLRCAASGSTFSRYAMGWYRQAAGKERELVAAISWSGGSTYYADSVKGRFTISRDNAKNTVYLQMNSLKPEYTAVYYCAAYTYSFRANHDFWGQGTQVTVSS
Output: high polyreactivity

Input: Give the measured polyreactivity (PSR sort gate) for QVQLVESGAGLVQAGGSLRLSCAASGSTLVYNDMGWYRQAPGKDREFVAAIRSNDGSTYYADSVKGRFTISRDNAKNTVYLQMNSLKPEDTAVYYCAKDSRNVYWDYGYWGQGTQVTVSS
Output: low polyreactivity

----------
- measurement-description: yeast display, Sf9 membrane polyspecificity reagent, FACS + sequencing; frameworks hold sequencing errors
measured-metric: polyreactivity (PSR sort gate)

Sample answers from the record:
QVQLVESGGGLVPARGSLRLSCAASGIILRGYAMGWYRQSPGKERELVAAITYRGSSTYYADSVKGSFTISRDNAKNTVYLQMNSLKPEDTAVYYCGADRWLYAVITAGGGYWGQGTQVTVSS : high polyreactivity
QVQLVESGGGLVQAGGSLRLSCAASGFIFGINAMGWYRQAPWKERELVAAISTGDRTNYADSVKGRFTISRDNAKNTVYLQMNSLKPEDTAVYYCAKDWRRNRPYEWTYDYWGQGTQVTVSS : low polyreactivity
QVQLVESGGGLVQAGGSLRLSCAASGSTFLYYTMGWYRQAPGKERELVAAITGSGTSTYYADSVKGRFTISRDNAKNTVYLQMNSLKPEDTAVYYCAARGHGRLYYWGQGTQVTVSS : high polyreactivity
QVQLVESGGGLVQAGGSLRLSCGASGLTFAYYAMRWYRQAPGKERELVAAISSSGRSTYYADSVKGRFTISRDNAKNTVYLQMNSLTEEDTAVSYCDKVGPWYYWERDYWGQCTQVTVSS : high polyreactivity
QVQLVESGGGLVQAGGSLRLSCAASGSIFSYYAMGWYRQAPGKERELVAVISSSGGRTYYADSVKGRFTISRDNAKNTVYLQMNSLKPEDTAVYYCAAKYRVFYGFDYWGQGTQVTVSS : high polyreactivity
QVQLEESGGGVVQAGGSLRLSCAASGSILGISAMGWYRPAPGKERALVAAIRTSSGSTYYADSVKVRFTISRDNAKNTVYFQMNSLKPEDTAVYSCAAYAFRYTPYYSWGQGTQVTVSS : high polyreactivity
QVQLVESGGALVQAGCSLRLSCAASGRTFGRNTMGWYRQAPGKERELVAGISRSAGRTYYADSVKGRFTISRDNAKNNVYLQMNSLKAEDTAVYYCAARYQGNYRTDKYDYWGQGTQVTVSS : high polyreactivity
QVQLVESGGGLVQAGGSLRLSCAASGFTFDDNAMGWYRQAPGKERELVAVITKSGGRTYYADSVKGRFTLSRDNAKNTVYLQMNSLKPEDTAVYYCNADGRNWYYKWYDYWGQGTQVTVSS : low polyreactivity

Input: Give the measured polyreactivity (PSR sort gate) for QVQLVESGGGLGQAGGSLRLSCAASGSTFQTKAMGWYRQAPGKERELVAAINSGGGTNYADSVKGRFTISRDNAKNTVYLQMNSLKPEDTAVYYCATDVLPRKYVSDYPSGAYDYWGQGTQVTVSS
Output: low polyreactivity

----------
- measurement-description: yeast display, Sf9 membrane polyspecificity reagent, FACS + sequencing; frameworks hold sequencing errors
measured-metric: polyreactivity (PSR sort gate)

Sample answers from the record:
QVQLVESGGGLVQAGGSLRLSCAASGFIFRYYAMGWYRQAPGKERELVASIVWSGGNTYYADSVKGRFTISRDNAKNTVYLQMNSLKPEDTAVYYCNRRGMDWGQGTQVTVSS : low polyreactivity
QVQLVESGGGLVQAGGSLRLSCAASGGTFVSNAMGWYRHAPGKERELVAAITTGGTTYADSVKGRFTISRDNAKNSVYLQMKSLKPEDSAVYYCAADIYLLILGRSILQFDYWGQGTQVTVSS : low polyreactivity
QVQLVESGGGLVQAGGSLRLSCAASGRTFRKYAMGWYRPAPGKERELVAAISWSGGSTRYADYVKGRFTISRDNEKNTVYLQMNSLKPEDTAVYYCNAVRRYRSTHPSYHTFNYWGQGTQVTVSS : high polyreactivity
QVQLVESGGGLVQAGGSLRLSCAASGRTFVGYAMGWYRQAPGKERELVAAISRRGGSTYYADSVKGRFTISRDYAKKTVYLQMNSLKPEDTAVYYCARDYGGVGAPGSAGAYDYWGQGTQVTVSS : high polyreactivity
QVQLVESGVGLVQAGGSLRLSCAASGFIFYRNAMGWYRPAPGKERELVAGISRVGSTYYADSVKGRFTISRDNAKNTVYLQMKSLKPEDTAVYYCATSTYAYRRNSYYYTRPRFGYWGQGTQVSVSS : high polyreactivity
QVQLQESGRRPGAAGGSPRMSCAASGNIFWVAVMGRYRQAPGKERELVASIGFGCTTYYADSVKCRFTISRDNAKKTVYLQMISLKPEDTAVYYCAAPNYDWGELDYWGQGTQVPVSS : low polyreactivity

Input: Give the measured polyreactivity (PSR sort gate) for QVQLVESGGGLVQAGGSLPLSCAASGRTFNFYAMGWYRQAPGKERELVATISGGVSTYYADSVKGPFTISRDNAKITVYLQMNSLKPEDTAVYYCAKDSCYPQWDLDYWGQGTQVTVSS
Output: high polyreactivity

Input: Give the measured polyreactivity (PSR sort gate) for QVQLQERGDGLLQAVGSLRLSFAESGYISGYYYMGWYRQAPGKDRELVAGIDAFGSSTNYADCVKGRFTISRDNAKNTVYLEMNSLKPEDTAVYYCAASPDGERLFSYWGQGTQVTVSS
Output: low polyreactivity

Input: Give the measured polyreactivity (PSR sort gate) for QVQLVESGGGLVQAGGSLRLSCAASGRTFAWYAMGWYRQAPGKERELVAAISWSSDTTYYADSVKGRFTISRDNAKNTVYLQMNSLKPEDTAVYYCAAVFQGYTRKYYYWGQGTQVTVSS
Output: high polyreactivity

Input: Give the measured polyreactivity (PSR sort gate) for QVQLVESGGGLVQAGGSLRLSCAASGSIFFPNAMGWYRQAPGKERELVAAITSTSTNYADSVKGRCTISRDNAKNTVYLQMNSLKPEDTAVYYCAADGEFRRAWYEGDYWGQGTQVTVSS
Output: low polyreactivity

Input: Give the measured polyreactivity (PSR sort gate) for QVQLVESWGGLVQAGGSLRLSCAASGIIFAAYAMGWYRQAPGKERELVATITSSGGSTFYADSVKGRFTISRDNAKNTVYLQMNSLKPEDTAVYYCAADTWGLWFWGPLFSKYGYWGQGTQVTVSS
Output: low polyreactivity
